Target: Mushroom tyrosinase (mTyr) (Agaricus bisporus, UniProt C7FF04)
Construct: purchased Sigma Chemical Co. T3824-50KU
Sequence (C7FF04 1-392): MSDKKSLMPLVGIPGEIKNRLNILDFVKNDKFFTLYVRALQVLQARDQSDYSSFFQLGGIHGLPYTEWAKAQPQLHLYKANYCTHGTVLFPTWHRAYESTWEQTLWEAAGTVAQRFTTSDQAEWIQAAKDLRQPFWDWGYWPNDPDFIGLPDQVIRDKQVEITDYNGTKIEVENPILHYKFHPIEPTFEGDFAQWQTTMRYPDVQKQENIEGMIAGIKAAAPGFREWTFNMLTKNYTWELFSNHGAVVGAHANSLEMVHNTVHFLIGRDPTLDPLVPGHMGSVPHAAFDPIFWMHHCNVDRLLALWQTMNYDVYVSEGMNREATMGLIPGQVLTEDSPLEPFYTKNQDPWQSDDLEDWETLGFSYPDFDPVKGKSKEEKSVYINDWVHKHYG
Test: Mushroom tyrosinase inhibition, L-tyrosine substrate (monophenolase)
Assay type: biochemical
Conditions: mTyr, L-tyrosine substrate (monophenolase); read-out: Mushroom Tyrosinase L-Tyrosine IC50
pIC50: −log10 of the molar value.
measurement.type: pIC50

Example cases with answers are listed next.
1) O=C(OC1C2CC3OCC(O)(C1Cl)C2C(OC1OC(CO)C(O)C(O)C1O)O3)c1ccc(O)c(O)c1 (stereo not drawn) [Piscroside C (6), Piscroside C]: < 3.70
2) COc1ccc(C(=O)OC2C3C=COC(OC4OC(CO)C(O)C(O)C4O)C3C3(CO)OC23)cc1O (stereo not drawn): < 3.70

Consider the additional compound presented here.
QUERY: Requested field: pIC50. Item: O=C(O[C@H]1[C@@H]2C=CO[C@@H](O[C@@H]3O[C@H](CO)[C@@H](O)[C@H](O)[C@H]3O)[C@@H]2[C@@]2(CO)O[C@@H]12)c1ccc(O)cc1 [Catalposide (3), Catalposide]
RESULT: < 3.70

Data provenance: paper PMC10472861
